target: WRN [UniPro: Q14191 (WRN_HUMAN), N500-C946] (Homo sapiens (Human), UniProt Q14191); assay: WRN unwinding assay (FORKF DNA, fluorescence); format: biochemical; settings: Table 14
Sequence (Q14191 500-946): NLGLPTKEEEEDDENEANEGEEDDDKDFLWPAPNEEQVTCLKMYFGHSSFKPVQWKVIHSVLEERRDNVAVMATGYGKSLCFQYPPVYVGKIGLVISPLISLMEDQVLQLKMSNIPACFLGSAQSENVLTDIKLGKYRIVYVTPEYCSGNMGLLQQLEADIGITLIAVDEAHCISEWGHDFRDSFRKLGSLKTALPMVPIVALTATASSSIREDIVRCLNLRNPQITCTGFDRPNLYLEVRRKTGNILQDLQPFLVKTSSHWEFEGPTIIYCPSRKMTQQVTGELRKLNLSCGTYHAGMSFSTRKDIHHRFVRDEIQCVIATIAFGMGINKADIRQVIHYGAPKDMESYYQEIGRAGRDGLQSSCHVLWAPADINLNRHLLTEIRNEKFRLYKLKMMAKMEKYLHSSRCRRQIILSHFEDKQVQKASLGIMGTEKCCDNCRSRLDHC
pIC50: −log10 of the molar value.
Would you kindly list pIC50 for each of these compounds?

Example results:
CCc1c(N2CCN(C(=O)c3cn(C)c(=O)n(C)c3=O)CC2)c(=O)n2nc(C3=CCOCC3)nc2n1CC(=O)Nc1ccc(C(F)(F)F)cc1Cl : < 6.00
CCc1c(N2CCN(C(=O)CNC(=O)c3ccccc3Cl)CC2)c(=O)n2nc(C3=CCOCC3)nc2n1CC(=O)Nc1ccc(C(F)(F)F)cc1Cl : > 7.00

Name the recorded pIC50 of the item CCc1c(N2CCN(C(=O)CNC(=O)c3cc(F)cc(NC)c3)CC2)c(=O)n2nc(N3CCOCC3)nc2n1CC(=O)Nc1ccc(C(F)(F)F)cc1F in your answer.
> 7.00

----------
molecular target: WRN [UniPro: Q14191 (WRN_HUMAN), N500-C946] (Homo sapiens (Human)); test: WRN unwinding assay (FORKF DNA, fluorescence); type: biochemical; conditions: Table 14
observed.property: IC50

CCc1c(N2CCN(C(=O)CNC(=O)c3ccccc3F)CC2)c(=O)n2nc(N3CC(C#N)C3)nc2n1CC(=O)Nc1ccc(C(F)(F)F)cc1Cl [Example 243] : 100 to 1000 nM
CCc1c(N2CCN(C(=O)CNC(=O)c3cccnc3)CC2)c(=O)n2nc(C3=CCOCC3)nc2n1CC(=O)Nc1ccc(C(F)(F)F)cc1Cl [Example 110] : < 100 nM
CCc1c(N2CCN(C(=O)CNC(=O)c3cccc(F)c3O)CC2)c(=O)n2nc(C3=CCOCC3)nc2n1CC(=O)Nc1ccc(C(F)(F)F)cc1Cl [Example 211] : < 100 nM
CCc1c(N2CCN(C(=O)CNC(=O)c3ccc(F)c(F)c3O)CC2)c(=O)n2nc(C3=CCOCC3)nc2n1CC(=O)Nc1ccc(C(F)(F)F)cc1F [Example 214] : < 100 nM
CCc1c(N2CCN(C(=O)CNC(=O)c3c(O)cc(C)oc3=O)CC2)c(=O)n2nc(C3=CCOCC3)nc2n1CC(=O)Nc1ccc(C(F)(F)F)cc1Cl [Example 295] : > 1000 nM

For every listed record, write down its IC50.
1. CCOC(=O)N1CCN(c2c(CC)n(CC(=O)Nc3ccc(C(F)(F)F)cc3Cl)c3nc(C4=CCOCC4)nn3c2=O)CC1 [Example 40]
2. CCc1c(N2CCN(C(=O)CNc3nc(=O)c4ccccc4[nH]3)CC2)c(=O)n2nc(C3=CCOCC3)nc2n1CC(=O)Nc1ccc(C(F)(F)F)cc1Cl [Example 208]
3. CCc1c(N2CCN(C(=O)CNC(=O)c3ccc(F)cc3F)CC2)c(=O)n2nc(C3=CCOCC3)nc2n1CC(=O)Nc1ccc(C(F)(F)F)cc1Cl [Example 117]
4. CCc1c(N2CCN(C(=O)CNC(=O)c3cc(Cl)ccc3Cl)CC2)c(=O)n2nc(C3=CCOCC3)nc2n1CC(=O)Nc1ccc(C(F)(F)F)cc1Cl [Example 126]
5. CCc1c(N2CCN(C(=O)c3cn(C)[nH]c3=O)CC2)c(=O)n2nc(C3=CCOCC3)nc2n1CC(=O)Nc1ccc(C(F)(F)F)cc1Cl [Example 64]
6. CCc1c(N2CCN(C(=O)CNC(=O)c3cc(NC)ccc3F)CC2)c(=O)n2nc(C3=CCOCC3)nc2n1CC(=O)Nc1ccc(C(F)(F)F)cc1F [Example 215]
7. CCOc1nc2n(CC(=O)Nc3ccc(C(F)(F)F)cc3Cl)c(CC)c(N3CCN(C(=O)CNC(=O)c4ccccc4F)CC3)c(=O)n2n1 [Example 239]

1: > 1000 nM; 2: < 100 nM; 3: < 100 nM; 4: < 100 nM; 5: < 100 nM; 6: < 100 nM; 7: 100 to 1000 nM

----------
biological target: WRN [UniPro: Q14191 (WRN_HUMAN), N500-C946] (Homo sapiens (Human), UniProt Q14191); assay: WRN ATPase assay (ADP-Glo); assay type: biochemical; details: WRN enzymatic activity assay
observed.property: IC50

CCc1c(N2CCN(C(=O)C(=O)NOC)CC2)c(=O)n2nc(C3=CCOCC3)nc2n1CC(=O)Nc1ccc(C(F)(F)F)cc1Cl : < 100 nM
CCc1c(N2CCN(C(=O)c3sc4cnccc4c3O)CC2)c(=O)n2nc(C3=CCOCC3)nc2n1CC(=O)Nc1ccc(C(F)(F)F)cc1Cl : < 100 nM
CCc1c(N2CCN(C(=O)CNC(=O)N3CCc4cccc(F)c43)CC2)c(=O)n2nc(C3=CCOCC3)nc2n1CC(=O)Nc1ccc(C(F)(F)F)cc1Cl : < 100 nM
CCc1c(N2CCN(C(=O)c3c(O)nn4c(Cl)cccc34)CC2)c(=O)n2nc(C3=CCOCC3)nc2n1CC(=O)Nc1ccc(C(F)(F)F)cc1Cl : < 100 nM

// for each compound below, give its IC50
1. CCc1c(N2CCN(C(=O)CNC(=O)N3CCCC3)CC2)c(=O)n2nc(C3=CCOCC3)nc2n1CC(=O)Nc1ccc(C(F)(F)F)cc1Cl
2. CCNC(=O)C(=O)N1CCN(c2c(CC)n(CC(=O)Nc3ccc(C(F)(F)F)cc3Cl)c3nc(C4=CCOCC4)nn3c2=O)CC1
3. CCc1c(N2CCN(C(=O)CNC(=O)c3ccccc3Br)CC2)c(=O)n2nc(C3=CCOCC3)nc2n1CC(=O)Nc1ccc(C(F)(F)F)cc1Cl
4. CCc1c(N2CCN(C(=O)c3cnn4cccc4c3O)CC2)c(=O)n2nc(C3=CCOCC3)nc2n1CC(=O)Nc1ccc(C(F)(F)F)cc1Cl
5. CCc1c(N2CCN(C(=O)CNC(=O)c3cccc(F)c3)CC2)c(=O)n2nc(C3=CCOCC3)nc2n1CC(=O)Nc1ccc(C(F)(F)F)cc1Cl
6. CCc1c(N2CCN(C(=O)CNC(=O)c3cccc(Cl)c3Cl)CC2)c(=O)n2nc(C3=CCOCC3)nc2n1CC(=O)Nc1ccc(C(F)(F)F)cc1Cl

1. 100 to 1000 nM
2. 100 to 1000 nM
3. < 100 nM
4. < 100 nM
5. < 100 nM
6. 100 to 1000 nM

Hi! Can you tell me IC50 for each of these compounds?
1. CCc1c(N2CCN(C(=O)CNC(=O)c3ccccc3F)CC2)c(=O)n2nc(N3Cc4cnn(C)c4C3)nc2n1CC(=O)Nc1cc(C)cs1
2. CCc1c(N2CCN(C(=O)CNC(=O)c3cccc4nonc34)CC2)c(=O)n2nc(C3=CCOCC3)nc2n1CC(=O)Nc1ccc(C(F)(F)F)cc1Cl
3. CCc1c(N2CCN(C(=O)CNC(=O)c3[nH]c(=O)ccc3F)CC2)c(=O)n2nc(C3=CCOCC3)nc2n1CC(=O)Nc1ccc(C(F)(F)F)cc1Cl

< 100 nM
< 100 nM
100 to 1000 nM

Fill in IC50 for each of the 7 compounds listed.
1. CCc1c(N2CCN(C(=O)CNC(=O)c3ccccc3F)CC2)c(=O)n2nc(C3=CCOCC3)nc2n1CC(=O)Nc1sc(C)cc1Br
2. CCc1c(N2CCN(C(=O)CNC(=O)c3cc(C#N)ccc3F)CC2)c(=O)n2nc(C3=CCOCC3)nc2n1CC(=O)Nc1ccc(C(F)(F)F)cc1Cl
3. [2H]C([2H])(NC(=O)c1ccccc1F)C(=O)N1CCN(c2c(CC)n(C([2H])([2H])C(=O)Nc3ccc(C(F)(F)F)cc3F)c3nc(C4=CCOCC4)nn3c2=O)CC1
4. CCc1c(N2CCN(C(=O)CNC(=O)c3cccnc3)CC2)c(=O)n2nc(C3=CCOCC3)nc2n1CC(=O)Nc1ccc(C(F)(F)F)cc1Cl
5. CCCC(=O)NCC(=O)N1CCN(c2c(CC)n(CC(=O)Nc3ccc(C(F)(F)F)cc3Cl)c3nc(C4=CCOCC4)nn3c2=O)CC1
6. CCc1c(N2CCN(C(=O)CNC(=O)c3cc(O)ccc3F)CC2)c(=O)n2nc(C3=CCOCC3)nc2n1CC(=O)Nc1ccc(C(F)(F)F)cc1Cl
7. CCc1c(N2CCN(C(=O)c3c[nH]c(=O)[nH]c3=O)CC2)c(=O)n2nc(C3=CCOCC3)nc2n1CC(=O)Nc1ccc(C(F)(F)F)cc1Cl

["100 to 1000 nM", "< 100 nM", "< 100 nM", "< 100 nM", "< 100 nM", "< 100 nM", "< 100 nM"]

Give measured IC50 for every item shown.
1. CCc1c(N2CCN(C(=O)CNC(=O)c3cc(F)ccc3F)CC2)c(=O)n2nc(C3=CCOCC3)nc2n1CC(=O)Nc1ccc(C(F)(F)F)cc1Cl
2. CCc1c(N2CCN(C(=O)C(=O)NCC(F)(F)F)CC2)c(=O)n2nc(C3=CCOCC3)nc2n1CC(=O)Nc1ccc(C(F)(F)F)cc1Cl

1: < 100 nM; 2: > 1000 nM

Batch request: IC50 per item, same order as input.
1. CCc1c(N2CCN(C(=O)C3CCC(=O)N3)CC2)c(=O)n2nc(C3=CCOCC3)nc2n1CC(=O)Nc1ccc(C(F)(F)F)cc1Cl (stereo not drawn)
2. CCc1c(N2CCN(C(=O)CNC(=O)c3cc(NC)c(F)cc3F)CC2)c(=O)n2nc(C3=CCOCC3)nc2n1CC(=O)Nc1ccc(C(F)(F)F)cc1F

> 1000 nM
< 100 nM
